From: patent US12516051B1

Reported CC50 is given for each of the following compounds.
Test system: SNU-C4 HiBiT-PXR KI cells
Test: Cytotoxicity, CellTiter-Glo Luminescent Cell Viability Assay
Assay type: cell-based
Conditions: read-out: 24 h CC50; Table 3; 24 h treatment
Experimental: An Echo 655T Acoustic Liquid Handler was used to dispense 75 nL/well of DMSO or PROTAC dilution into white tissue culture-treated 384-well plates. […] After 24 h or 72 h, the CellTiter-Glo Luminescent Cell Viability Assay (Promega, cat. #G7572) and an EnVision microplate reader were used to assess cytotoxicity. […] The percent cell viability for each well was calculated using equation 5,

[[record]]
compound = "COc1cc(OCCCCCCCC(=O)N[C@H](C(=O)N2C[C@H](O)C[C@H]2C(=O)NCc2ccc(-c3scnc3C)cc2)C(C)(C)C)c(C)cc1-n1nnc(S(=O)(=O)c2ccc(C(C)(C)C)cc2)c1C [Compound 25]"
value_observed = "> 30 µM"

[[record]]
compound = "COc1cc(OCCOCCOCCOCCOCCC(=O)N[C@H](C(=O)N2C[C@H](O)C[C@H]2C(=O)NCc2ccc(-c3scnc3C)cc2)C(C)(C)C)c(C)cc1-n1nnc(S(=O)(=O)c2ccc(C(C)(C)C)cc2)c1C [Compound 29]"
value_observed = "> 30 µM"


We next turn to a different compound, shown below.
Ask | Need CC50, item COc1cc(OCCOCCC(=O)N[C@H](C(=O)N2C[C@H](O)C[C@H]2C(=O)NCc2ccc(-c3scnc3C)cc2)C(C)(C)C)c(C)cc1-n1nnc(S(=O)(=O)c2ccc(C(C)(C)C)cc2)c1C [Compound 24]
Reply | > 30 µM

---

System: SNU-C4 HiBiT-PXR KI cells
Test: Cytotoxicity, CellTiter-Glo Luminescent Cell Viability Assay
Format: cell-based
Details: read-out: 72 h CC50; Table 3; 72 h treatment
endpoint.label: CC50

[[record]]
smiles_notation = "COc1cc(OCCOCCC(=O)N[C@H](C(=O)N2C[C@H](O)C[C@H]2C(=O)NCc2ccc(-c3scnc3C)cc2)C(C)(C)C)c(C)cc1-n1nnc(S(=O)(=O)c2ccc(C(C)(C)C)cc2)c1C"
value_observed = "> 30 µM"

[[record]]
smiles_notation = "COc1cc(OCCOCCOCCOCCOCCOCCC(=O)N[C@H](C(=O)N2C[C@H](O)C[C@H]2C(=O)NCc2ccc(-c3scnc3C)cc2)C(C)(C)C)c(C)cc1-n1nnc(S(=O)(=O)c2ccc(C(C)(C)C)cc2)c1C"
value_observed = "> 30 µM"

[[record]]
smiles_notation = "COc1cc(OCCCCCCOCCOCCOCCOCCOCCOCC(=O)N[C@H](C(=O)N2C[C@H](O)C[C@H]2C(=O)NCc2ccc(-c3scnc3C)cc2)C(C)(C)C)c(C)cc1-n1nnc(S(=O)(=O)c2ccc(C(C)(C)C)cc2)c1C"
value_observed = "> 30 µM"

[[record]]
smiles_notation = "COc1cc(OCC(=O)N[C@H](C(=O)N2C[C@H](O)C[C@H]2C(=O)NCc2ccc(-c3scnc3C)cc2)C(C)(C)C)c(C)cc1-n1nnc(S(=O)(=O)c2ccc(C(C)(C)C)cc2)c1C"
value_observed = "> 30 µM"

[[record]]
smiles_notation = "COc1cc(OCCOCCOCCOCCOCCC(=O)N[C@H](C(=O)N2C[C@H](O)C[C@H]2C(=O)NCc2ccc(-c3scnc3C)cc2)C(C)(C)C)c(C)cc1-n1nnc(S(=O)(=O)c2ccc(C(C)(C)C)cc2)c1C"
value_observed = "> 30 µM"


We next turn to a different molecule, shown below.
Ask | Need CC50, item COc1cc(OCCOCCOCCOCCC(=O)N[C@H](C(=O)N2C[C@H](O)C[C@H]2C(=O)NCc2ccc(-c3scnc3C)cc2)C(C)(C)C)c(C)cc1-n1nnc(S(=O)(=O)c2ccc(C(C)(C)C)cc2)c1C
Reply | > 30 µM
